Listed here: items and their measured normalised response.
System: HCC1599
Assay Method Text: normalised response (% of control), CellTox Green; higher = less cell death (100 = DMSO, 0 = benzethonium chloride kill control)
Experimental Context: incubation time: 72 h
Write it as a number; the unit % goes unstated.

The examples below pair each entry with its known result.
>>> experimental_result("CCN1CCN(c2ccc(Nc3cc(N(C)C(=O)Nc4c(Cl)c(OC)cc(OC)c4Cl)ncn3)cc2)CC1 [NVP-BGJ398] (10 nM)")
91.5
>>> experimental_result("COc1cccc2cc(-c3nc([C@H]4CC[C@H](C(=O)O)CC4)n4ncnc(N)c34)[nH]c12 [OSI-027] (100 nM)")
102
>>> experimental_result("C[C@]1(c2nc3c(C(N)=O)cccc3[nH]2)CCCN1 [Veliparib] (10000 nM)")
117
>>> experimental_result("CC[C@]1(O)C[C@@H]2CN(CCc3c([nH]c4ccccc34)[C@@](C(=O)OC)(c3cc4c(cc3OC)N(C)[C@H]3[C@@](O)(C(=O)OC)[C@H](OC(C)=O)[C@]5(CC)C=CCN6CC[C@]43[C@@H]65)C2)C1 [Vinblastine] (100 nM)")
78.4
>>> experimental_result("CC(=O)O[C@]1(C(C)=O)CC[C@H]2[C@@H]3C=C(C)C4=CC(=O)CC[C@]4(C)[C@H]3CC[C@@]21C [Megestrol acetate] (10000 nM)")
95.9

# next compound below
Report normalised response for C[C@]1(c2nc3c(C(N)=O)cccc3[nH]2)CCCN1 [Veliparib] (1000 nM) please.
105

FYI, the data here is from the supplement of paper PMC4862054.
